Tested on: MCF7 breast
Test: NCI-60 one-dose screen, 48 h
Conditions: 10 µM unless noted
Experimental: Growth inhibition of the MCF7 human tumor cell line is measured as a screen for anti-cancer activity. Cells are grown in 96 well plates and exposed to the test compound for 48 hours. Compounds are tested at a single concentration, which is 10^-5 M for most compounds. The reported endpoint is percent growth (GI% or GIPRCNT), where numbers from 0 - 100% represent growth inhibition, and numbers from -100% - 0 represent cell death. For example, a value of 40 represents 60% growth inhibition. […]
This is part of a sample that, as a whole, favours compounds with a hit. Of some 83,000 tested, about 20% had one in any assay. Active and inactive are the calls of the source. The calls were made as follows: active = growth percent below 10; inactive = the rest.
Reply using exactly one outcome from class 1 = active, class 0 = inactive

Problem: Recorded call for `CCCCC[C@H]1CC=C2C(=O)C(Cl)=C[C@@H]2CC=CCCCC(=O)O[C@@H](CCCCC)CC=C2C(=O)C(Cl)=C[C@@H]2CC=CCCCC(=O)O[C@@H](CCCCC)CC=C2C(=O)C(Cl)=C[C@@H]2CC=CCCCC(=O)O1` ?
Result: class 0

Problem: How was `CN(C)c1ccc(C(=O)c2ccc(N(C)C)c(N)c2)cc1N` classified in this test?
Result: class 0

Problem: Could you kindly confirm the outcome this assay logged for `COC(c1ccccc1)(c1ccccc1)c1ccccc1` ?
Result: class 0

Problem: Test call for this molecule, please: `Clc1ccccc1-c1nc(Nc2nc3ccccc3s2)nc(C(Cl)(Cl)Cl)n1`
Result: class 0

Problem: Which outcome did this test record for the molecule `NS(=O)(=O)c1ccc(CCNC(=O)/C=C/c2ccc(Cl)cc2)cc1` ?
Result: class 0

Problem: Assay result, entry CC(Cc1ccco1)C(=O)NC(N)=O (stereo not given) — outcome?
Result: class 0

Problem: Outcome logged for `C/C(=C(/c1ccccc1)c1ccc(N2C(=O)c3cccc4c(NCc5ccccc5)ccc(c34)C2=O)cc1)c1ccccc1` in this assay:
Result: class 0

Problem: Outcome? `Cc1cc(Nc2ccc(F)cc2)nc(N2CCN(c3ccnc4cc(Cl)ccc34)CC2)n1`
Result: class 1

Problem: Entry COc1cc(/C=C2\C(=O)N(CC(O)COc3cc(O)c4c(=O)cc(-c5ccccc5)oc4c3)c3ccccc32)cc(OC)c1O (stereo not given) : call = ?
Result: class 0

Problem: Give the logged outcome of this assay for the following molecule: `C=CC(=O)N[C@H](Cc1ccc(-c2cc(Cl)cc(Cl)c2)cc1)[C@H](O)[C@@H](O)C(=O)O`
Result: class 0

Problem: Dear colleague, could you share the recorded outcome for `Cc1ccc2c(c1)c1nc3cc(C)c(C)cc3nc1n2CCN(C)C` when you have a moment?
Result: class 1

Problem: # fetch the recorded call for `C=COCCCCCCCCCCCCCCCCCC` here
Result: class 0

Problem: What is the recorded call for this molecule in the test? `COc1ccc(C(=O)c2ccc(C)cc2)c(OC)c1OC`
Result: class 0

Problem: State the result this test recorded for Cc1ccsc1-c1ccc2c(c1)COC2(CCCN(C)C)c1ccc(F)cc1 (stereo not given) .
Result: class 0

Problem: Hi team, can someone confirm the assay call for `COc1ccc(C(=O)c2cc(OC)c(OC)c(OC)c2)cc1/C=C/C(=O)c1cc(OC)c(OC)c(OC)c1` ?
Result: class 0

Problem: Short answer needed: outcome of this test for `COc1ccc(C(=O)/C=C/c2cc(-c3cc(OC)c(OC)c(OC)c3)n[nH]2)cc1OC` ?
Result: class 1

Problem: Identify the outcome logged in this assay for the molecule shown: N#CC1=C(N)Oc2c(sc3c(F)cccc23)C1c1ccc(Cl)cc1 (stereo not given)
Result: class 0

Problem: Test call for this molecule, please: `COc1cc(-c2c(C#N)c(-c3cccs3)nc3c2c(-c2ccccc2)nn3-c2ccccc2)ccc1O`
Result: class 0

Problem: Which outcome did this test record for the molecule `O=C(O)c1cccc2c1-c1ccc(Cl)cc1C2` ?
Result: class 0

Problem: Called result for `CCN1CCN(c2nc(C)cc(N(CCCNc3ccnc4cc(Cl)ccc34)Cc3ccco3)n2)CC1`
Result: class 0

---

test system: KM12 colon; experiment: NCI-60 one-dose screen, 48 h (100 = growth as untreated, 0 = no growth, -100 = all killed); conditions: 10 µM unless noted
The panel holds about 83,000 compounds, 20% with a hit somewhere; the sample as a whole holds those more often. Activity calls are given as the source filed them. How the source made its calls: active means growth percent below 10; inactive means the rest.
parameter_measured: growth

// recorded growth for `Cn1cc(-c2csc(-c3c[nH]c4ccccc34)n2)c2cccnc21` : 32.5% (inactive)

response.value for `CC(=O)O[C@H]1CC[C@]2(C)[C@H]3CC=C4[C@@H]5[C@H](C)[C@@H](C)CC[C@]5(C(=O)NCCNCCNCCN)CC[C@@]4(C)[C@]3(C)CC[C@H]2C1(C)C` (field: growth) = 86.2% (inactive)

So for `COc1ccc(NC(=O)c2ccc3c(c2)nc(-c2cc4ccccc4[nH]c2=O)n3-c2cc(C(C)(C)C)[nH]n2)cc1` , the logged growth turned out to be 90.5% (inactive)

// `CC/C=C\C[C@H]1CC=C2C(=O)C=C[C@@H]2CC=CCCCC(=O)O[C@@H](CCCCC)CC=C2C(=O)C=C[C@@H]2CC=CCCCC(=O)O[C@@H](CCCCC)CC=C2C(=O)C=C[C@@H]2CC=CCCCC(=O)O[C@@H](CCCCC)CC=C2C(=O)C=C[C@@H]2CC=CCCCC(=O)O1` : growth value = 21.1% [7.9 µM] (inactive)

Reported growth of `Cn1cc(-c2csc(-c3cn(CCN)c4ccc(Br)cc34)n2)c2cccnc21` : 71.8% (inactive)

// growth value for `Cc1cc(Nc2ccc(F)cc2)nc(N2CCN(c3ccnc4cc(Cl)ccc34)CC2)n1` : 21.6% (inactive)

Noted for `CCN(CC)CCCCCNc1cc(OC(=O)c2ccccc2)cc2cccnc12` : its growth reads 81.3% (inactive)

---

Give growth for every item shown.
test system: SW-620 colon; test: NCI-60 one-dose screen, 48 h (100 = growth as untreated, 0 = no growth, -100 = all killed); conditions: 10 µM unless noted
Compounds without any hit were thinned out: in the full panel of roughly 83,000, 20% have a hit.
Form entry: value (%) — number only.

response.value for `COc1cc(-c2cc(-c3nc4ccccc4[nH]3)[nH]n2)cc(OC)c1OC` (field: growth) = 59.4

Input `Cc1ccc(Cc2cnc(NC(=O)/C=C/c3cccc(C)c3)s2)cc1` . Output growth: 17

Documented growth of `COc1ccc(NC(=O)c2ccoc2COc2ccccc2)cc1` : 97.9

Form field growth, entry `Cn1cc(-c2nc(-c3c[nH]c4ncccc34)cs2)c2cc(Br)ccc21` : 95.8

# growth (molecule: `C[C@@H](C(=O)O)c1ccc2c3cc(Cl)ccc3n(Cc3cc(=O)oc4ccc(Cl)cc34)c2c1` ) is 107

---

Would you kindly list growth for each of these compounds?
test system: OVCAR-5 ovarian; assay: NCI-60 one-dose screen, 48 h (100 = growth as untreated, 0 = no growth, -100 = all killed); settings: 10 µM unless noted
About 83,000 compounds went through this panel and 20% of them were active in at least one assay; those are over-represented in the sample as a whole.
// note: answer is a bare numeric in %

Entry `COc1cccc(-c2nn(-c3ccccc3)cc2-c2ccnc(NCCNS(=O)(=O)c3ccc(C(F)(F)F)cc3)c2)c1` ; growth = 24.9

// field: growth; key: `c1cnc2[nH]cc(-c3csc(-c4cn(CCCN5CCCCC5)c5ccccc45)n3)c2c1` ; value = 92.5

The compound listed as `Cn1cc(-c2csc(-c3cn(CCCN4CCCCC4)c4ccccc34)n2)c2cccnc21` shows growth equal to 92.9

# growth (compound: `CC(=O)c1c(C)[nH]c(-c2nc3ccc(N4CCN(C)CC4)cc3[nH]2)c1-c1ccc(N(C)C)cc1` ) is 41.6

Looking up `Cc1ccc(N(CC(=O)Nc2ccc(S(=O)(=O)NC3CCN(C)CC3)cc2)S(=O)(=O)c2ccc(Cl)cc2)cc1` , I found its growth recorded as 91.6

Query `COc1ccc(C2=NN(c3nc(-c4ccc(OC)cc4)c(C#N)c(=O)n3C)C(=O)CC2)cc1` yields growth of 72.3

Just so you know, measured growth for `C[C@@H]1CCCCCCCCC[C@H](O)C(=O)C[C@@H](SC[C@@H](O)C(=O)O)C(=O)O1` came out at 104

Please fill in: growth reported for `Nc1c(C(=O)Nc2cccc(Br)c2)sc2nc3c(cc12)C(=O)CCC3` = 59.3

The reported value for `C/C(=N/NC(N)=S)C(=O)O` in terms of growth is 91.1

---

Tested on: ACHN renal
Assay: NCI-60 one-dose screen, 48 h
Conditions: 10 µM unless noted
Protocol: Growth inhibition of the ACHN human tumor cell line is measured as a screen for anti-cancer activity. Cells are grown in 96 well plates and exposed to the test compound for 48 hours. Compounds are tested at a single concentration, which is 10^-5 M for most compounds. The reported endpoint is percent growth (GI% or GIPRCNT), where numbers from 0 - 100% represent growth inhibition, and numbers from -100% - 0 represent cell death. For example, a value of 40 represents 60% growth inhibition. […]
Compounds without any hit were thinned out: in the full panel of roughly 83,000, 20% have a hit. Activity calls are given as the source filed them. How the source made its calls: active means growth percent below 10; inactive means the rest.
Answer with one of the outcomes given here: active, inactive

Problem: Outcome logged for `Cc1cc(N(CCCNc2ccnc3cc(Cl)ccc23)Cc2ccco2)nc(N2CCN(C)CC2)n1` in this assay:
Result: inactive

Problem: Please indicate how the test categorized `O=S(=O)(NCCNc1cc(-c2cn(-c3ccccc3)nc2-c2cccc(O)c2)ccn1)c1ccc(Br)cc1` .
Result: inactive

Problem: Query: recorded result category for C#Cc1cccc(NC(=O)C2CCCN(C(=O)CCl)C2)c1 (centres undefined) in this test
Result: active

Problem: How was `COc1cc2nc(Cl)nc(Nc3cccc(C(=O)/C=C/c4ccc(Br)cc4)c3)c2cc1OC` classified in this test?
Result: inactive

Problem: Hi, sorry to bother you, what did the test record for `N#C/C(=C\c1ccc(-c2ccc(F)cc2)o1)c1nc(-c2ccco2)cs1` ?
Result: inactive

Problem: Hello, I am checking results. What call was entered for `COC(=O)[C@]12CC[C@@H](C(=O)/C=C/c3cccnc3)[C@@H]1[C@H]1CC[C@@H]3[C@@]4(C)C/C(=C/c5cccnc5)C(=O)C(C)(C)[C@@H]4CC[C@@]3(C)[C@]1(C)CC2` ?
Result: active

Problem: # fetch the recorded call for CCSc1ncnc2c1ncn2C1OC(CO)C(O)C1O (centres undefined) here
Result: inactive

Problem: # lookup: test call for `c1ccc2[nH]c(-c3ccc(Nc4nc(N5CCCCC5)nc(N5CCOCC5)n4)cc3)nc2c1`
Result: inactive

Problem: Please let me know the test result on file for Nc1c2c(nc3ccc(Cl)cc13)CC(c1ccccc1)CC2=O (centres undefined) .
Result: inactive
